- System: NCI-H23 lung
- test.name: NCI tumour cell line growth inhibition, 48 h; in the data active = GI50 below about 0.43 µM; inactive = the rest
Pick from yes (1) (active), no (0) (inactive) when you respond.

Recorded results for 2 compounds are shown here.
{"structure.string": "O=C([CH-]C(=O)c1ccccc1)c1ccccc1.O=C([CH-]C(=O)c1ccccc1)c1ccccc1.[Nd+3].[OH-].[OH3+]", "answer.label": "no (0)"}
{"structure.string": "COC(=O)/C(=C\\c1c(C)[nH]c2ccccc12)S(=O)(=O)c1ccccc1", "answer.label": "no (0)"}

input: Per the assay record, what outcome was assigned to O=C(Oc1ccc(CCl)cc1)c1ccccc1 ?
output: yes (1)

input: Per the assay record, what outcome was assigned to Nc1ccccc1C#C/C=C\C#Cc1ccc(Cl)cc1Cl ?
output: no (0)

* * *

Reported TGI values for a set of molecules
- System: SK-OV-3 ovarian
- test.name: NCI tumour cell line growth inhibition, 48 h

Examples with answers:
{"molecule": "CC[N+](CC)(CC)CCCn1c2c(c3ccccc3c1=O)C(=O)c1ccccc1-2", "parameter.measured": "TGI", "readout.value": "> 100 µM"}
{"molecule": "Cc1ccc2c(=O)c3cccc(CC(=O)O)c3oc2c1C", "parameter.measured": "TGI", "readout.value": "> 100 µM"}
{"molecule": "CC(=O)Nc1ccc(C2[C@H]3C(=O)N(c4ccc(Cc5ccc(N6C(=O)[C@@H]7ON(c8ccccc8)C(c8ccc(NC(C)=O)cc8)[C@@H]7C6=O)cc5)cc4)C(=O)[C@H]3ON2c2ccccc2)cc1 (some centres undefined)", "parameter.measured": "TGI", "readout.value": "> 100 µM"}

Moving on to the next molecule.
input: Any idea what its TGI is? The molecule is CC1NC(/C(=C/c2ccccc2O)NC(=O)c2ccccc2)OC1=O (centres undefined)
output: > 50 µM

* * *

Reported TGI values for a set of compounds
- Test system: EKVX NSCLC
- test.name: NCI tumour cell line growth inhibition, 48 h
Provide only the numeric value, understood in µM.

{"compound": "Cc1cc2c(s1)C(=O)c1sccc1C2=O", "study.system": "EKVX NSCLC", "unit.info": "µM", "TGI": 3.32}
{"compound": "CN(C)CCNc1ccc2c(=O)n(CCN(C)C)c(=O)n3c4ccc(N)cc4c(=O)c1c23", "study.system": "EKVX NSCLC", "unit.info": "µM", "TGI": 0.593}
{"compound": "CCOC(=O)CC[C@@H](NC(=O)c1ccc(N[C@@H]2c3cc4c(cc3C(c3cc(OC)c(O)c(OC)c3)C3C(=O)OC[C@@H]32)OCO4)cc1)C(=O)OCC (stereo not given in full)", "study.system": "EKVX NSCLC", "unit.info": "µM", "TGI": 0.0799}

Moving on to the next compound.
input: Any idea what its TGI is? The compound is COc1cccc(-c2nc3c(C(=O)NCCN(C)C)cccc3[nH]2)c1
output: 97.5

* * *

- Test system: HCT-116 colon
- test.name: NCI tumour cell line growth inhibition, 48 h; in the data active = GI50 below about 0.43 µM; inactive = the rest
Pick from True (active), False (inactive) when you respond.

{"structure.string": "O=C(Nc1ccc(Cl)cc1)c1cc2ccccc2cc1O", "answer.label": "False"}
{"structure.string": "O=C1C=Cc2ccccc2/C1=C/c1[nH]c(=O)[nH]c1O", "answer.label": "False"}
{"structure.string": "O=C(Nc1ncc(Cc2ccccc2Cl)s1)c1ccc2c(c1)OCCO2", "answer.label": "True"}

input: Per the assay record, what outcome was assigned to O=C([CH-]C(=O)c1ccccc1)c1ccccc1.O=C([CH-]C(=O)c1ccccc1)c1ccccc1.[Nd+3].[OH-].[OH3+] ?
output: False

* * *

Reported TGI values for a set of molecules
- Tested on: OVCAR-3 ovarian
- test.name: NCI tumour cell line growth inhibition, 48 h

Examples with answers:
{"molecule": "COC(=O)C1=C(O)C(O)=C(C(=O)OC)C1", "TGI": "> 100 µM"}
{"molecule": "CC(C)(C)N1NC1C1NN1C(C)(C)C (stereo unspecified)", "TGI": "> 100 µM"}
{"molecule": "O=C1c2ccccc2-c2ccc(N=[N+]([O-])c3ccc4c(c3)C(=O)c3ccccc3-4)cc21", "TGI": "> 100 µM"}

input: Any idea what its TGI is? The molecule is CCCNC(=S)/N=C\c1c(O)c2ccccc2oc1=O
output: > 100 µM

input: Any idea what its TGI is? The molecule is Cc1c2cc[nH]c(=O)c2cc2c(=O)c3cnccc3[nH]c12
output: > 100 µM

input: Any idea what its TGI is? The molecule is CC(=O)OC(C)(C)/C=C/C(=O)[C@](C)(O)[C@H]1[C@H](O)C[C@@]2(C)[C@@H]3CC=C4[C@@H](C[C@H](O)C(=O)C4(C)C)[C@]3(C)C(=O)C[C@]12C
output: 0.17 µM

input: Any idea what its TGI is? The molecule is CC(=O)/C=C/c1ccc(C2CC(C)=Nc3c(ccc4c3C(=O)c3ccccc3C4=O)N2)cc1 (stereo unspecified)
output: > 100 µM

input: Any idea what its TGI is? The molecule is COC12C=CC(CC1)C1C(=O)c3c(C)c(C)n(C)c3C(=O)C12 (stereo unspecified)
output: > 100 µM

input: Any idea what its TGI is? The molecule is Cc1ccccc1N(C)S(=O)(=O)c1ccccc1[N+](=O)[O-]
output: > 100 µM

input: Any idea what its TGI is? The molecule is O=C1CCCC2=C1CC1=C(CCCC1=O)N2c1cccc2ccccc12
output: > 100 µM

input: Any idea what its TGI is? The molecule is [N-]=[N+]=NC1C(Br)C(=O)NC(=O)N1[C@H]1C[C@H](O)[C@@H](CO)O1 (stereo partly specified)
output: > 100 µM

input: Any idea what its TGI is? The molecule is CCOC(=O)CCC(NC(=O)c1ccc(Nc2nc3cc(C(F)(F)F)ccc3nc2-c2ccccc2)cc1)C(=O)OCC (stereo unspecified)
output: > 100 µM

input: Any idea what its TGI is? The molecule is OC1CC(O)c2c(Cl)sc(Cl)c21 (stereo unspecified)
output: 70.8 µM

* * *

- Test system: NCI-H460 lung
- test.name: NCI tumour cell line growth inhibition, 48 h
Reported TGI values for a set of compounds

input: Any idea what its TGI is? The compound is COC(=O)C1(O)c2ccccc2N=C2C(=O)c3ccccc3N21 (stereo not drawn)
output: > 100 µM

input: Any idea what its TGI is? The compound is O=C1c2ccccc2-c2ccc(N=[N+]([O-])c3ccc4c(c3)C(=O)c3ccccc3-4)cc21
output: > 100 µM

input: Any idea what its TGI is? The compound is CCOC(=O)CC1=CSC2=NCCN12
output: > 100 µM

* * *

Reported log10 of TGI values for a set of compounds
- Tested on: 786-0 renal
- test.name: NCI tumour cell line growth inhibition, 48 h
Hey, these are logged values: log10 of TGI, µM being the unit before logging.

Examples with answers:
{"compound": "CCN(CC)CCOc1ccc(/C=C2\\CC3C4CC=C5C[C@@H](N6CCCC6)CC[C@]5(C)C4CC[C@]3(C)[C@H]2O)cc1OC (stereo not given in full)", "study.system": "786-0 renal", "readout.value": 1.00}
{"compound": "Cc1cc2c(F)c(Oc3ncnn4cc(OC[C@@H](C)OC(=O)[C@H](C)N)c(C)c34)ccc2[nH]1", "study.system": "786-0 renal", "readout.value": 1.43}
{"compound": "COc1cc2cc(C(=O)N3CC(CCl)c4ccc(NCCN)cc43)[nH]c2c(OC)c1OC (stereo not given)", "study.system": "786-0 renal", "readout.value": 0.05}
{"compound": "CN(c1ccccc1)C(c1ccccc1)C(O)c1ccccc1 (stereo not given)", "study.system": "786-0 renal", "readout.value": 1.53}
{"compound": "O=C(Oc1ccc(CCl)cc1)c1ccccc1", "study.system": "786-0 renal", "readout.value": -0.54}

Moving on to the next compound.
input: Any idea what its log10 of TGI is? The compound is CCOC(CN=c1nc(N(C)C)ss1)OCC
output: 1.60

* * *

Reported TGI values for a set of compounds
- Test system: RPMI-8226 leukemia
- test.name: NCI tumour cell line growth inhibition, 48 h

Examples with answers:
{"compound": "S=C1N(c2ccc(Cl)cc2)C2=C(N=Nc3ccccc3)C(=Nc3ccccc3S2)N1c1ccccn1", "study.system": "RPMI-8226 leukemia", "readout.value": "43.6 µM"}
{"compound": "CC1C[C@]2(C)C(=S)Nc3ccccc3[C@@H]2Nc2ccccc21 (some centres undefined)", "study.system": "RPMI-8226 leukemia", "readout.value": "> 100 µM"}
{"compound": "CCOC(=O)Oc1c(OC)cc(C(=O)O[C@@H]2C[C@@H]3CN4CCc5c([nH]c6cc(OC)ccc56)[C@H]4C[C@@H]3[C@H](C(=O)OC)[C@H]2OC)cc1OC", "study.system": "RPMI-8226 leukemia", "readout.value": "10.8 µM"}

input: Any idea what its TGI is? The compound is CC(C)C(N=Cc1ccccc1O)C(=O)O (centres undefined)
output: > 100 µM

input: Any idea what its TGI is? The compound is CCOC(=O)CC[C@@H](NC(=O)c1ccc(N[C@@H]2c3cc4c(cc3C(c3cc(OC)c(O)c(OC)c3)C3C(=O)OC[C@@H]32)OCO4)cc1)C(=O)OCC (some centres undefined)
output: > 10 µM

input: Any idea what its TGI is? The compound is Cc1c2cc[nH]c(=O)c2cc2c(=O)c3cnccc3[nH]c12
output: > 100 µM

input: Any idea what its TGI is? The compound is C[C@]12CCC(=O)C(O)=C1CC[C@@H]1[C@@H]2CC[C@]2(C)C(=O)CC[C@@H]12
output: > 100 µM

input: Any idea what its TGI is? The compound is O=S(=O)(c1ccc(I)cc1)N(c1ccccc1)S(=O)(=O)C(F)(F)C(F)(F)C(F)(F)C(F)(F)F
output: > 100 µM

input: Any idea what its TGI is? The compound is Cc1ccc(S(=O)(=O)N2CCCCN(S(=O)(=O)c3ccc(C)cc3)Cc3ccccc3OCCOCCOc3c4cccc3Cc3cccc5c3OCCOCCOc3ccccc3CN(S(=O)(=O)c3ccc(C)cc3)CCCN(S(=O)(=O)c3ccc(C)cc3)Cc3ccccc3OCCOCCOc3c(cccc3C4)Cc3cccc(c3OCCOCCOc3ccccc3C2)C5)cc1
output: > 100 µM
